Cited source: the supplement of paper PMC6555819

Test system: RARa homodimer (NR concentration 270 nM)
Assay: PBM binding z-score (relative to random genomic background probes); higher = stronger binding; sequences stand for … in GC…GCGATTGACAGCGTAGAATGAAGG
value_kind: PBM binding z-score
Reply with just the number.

A selection of reference data follows.
# sequence_entry, PBM binding z-score
records = [
    ("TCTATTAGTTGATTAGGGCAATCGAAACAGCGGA", 1.56),
    ("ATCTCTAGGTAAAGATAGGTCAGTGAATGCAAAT", 1.54),
    ("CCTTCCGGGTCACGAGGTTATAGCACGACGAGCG", 0.661),
]

Exercise: Please look up its PBM binding z-score: `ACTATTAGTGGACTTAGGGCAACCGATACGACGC`
Solution: 0.447

Exercise: Please look up its PBM binding z-score: `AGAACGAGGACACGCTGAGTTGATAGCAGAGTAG`
Solution: -0.0719

Exercise: Please look up its PBM binding z-score: `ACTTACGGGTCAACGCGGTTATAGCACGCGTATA`
Solution: 0.802

###

Tested on: PXR homodimer (NR concentration 270 nM)
Assay: PBM binding z-score (relative to random genomic background probes); higher = stronger binding; sequences stand for … in GC…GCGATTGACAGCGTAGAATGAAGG
value_kind: PBM binding z-score

# sequence_entry, PBM binding z-score
records = [
    ("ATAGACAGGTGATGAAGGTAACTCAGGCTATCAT", 0.251),
    ("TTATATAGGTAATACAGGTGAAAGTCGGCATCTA", 0.343),
    ("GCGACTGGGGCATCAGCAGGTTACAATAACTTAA", -0.126),
    ("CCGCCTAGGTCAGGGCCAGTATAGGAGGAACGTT", -0.663),
    ("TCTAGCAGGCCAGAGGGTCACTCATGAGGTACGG", -0.579),
]

Exercise: Requested read-out PBM binding z-score, target or system PXR homodimer (NR concentration 270 nM), entry `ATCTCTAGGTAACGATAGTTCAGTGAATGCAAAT`
Solution: 0.85

Exercise: Requested read-out PBM binding z-score, target or system PXR homodimer (NR concentration 270 nM), entry `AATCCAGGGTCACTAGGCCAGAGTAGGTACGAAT`
Solution: 0.164

Exercise: Requested read-out PBM binding z-score, target or system PXR homodimer (NR concentration 270 nM), entry `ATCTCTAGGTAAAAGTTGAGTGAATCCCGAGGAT`
Solution: 0.147

Exercise: Requested read-out PBM binding z-score, target or system PXR homodimer (NR concentration 270 nM), entry `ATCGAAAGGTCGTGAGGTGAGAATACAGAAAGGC`
Solution: 0.322

Exercise: Requested read-out PBM binding z-score, target or system PXR homodimer (NR concentration 270 nM), entry `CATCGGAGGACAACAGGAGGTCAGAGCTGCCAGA`
Solution: 0.834

Exercise: Requested read-out PBM binding z-score, target or system PXR homodimer (NR concentration 270 nM), entry `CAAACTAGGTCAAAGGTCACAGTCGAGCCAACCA`
Solution: 1.29

Exercise: Requested read-out PBM binding z-score, target or system PXR homodimer (NR concentration 270 nM), entry `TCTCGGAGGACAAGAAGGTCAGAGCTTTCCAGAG`
Solution: 1.64

Exercise: Requested read-out PBM binding z-score, target or system PXR homodimer (NR concentration 270 nM), entry `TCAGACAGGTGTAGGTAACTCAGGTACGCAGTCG`
Solution: 0.461

Exercise: Requested read-out PBM binding z-score, target or system PXR homodimer (NR concentration 270 nM), entry `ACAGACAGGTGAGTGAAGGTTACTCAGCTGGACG`
Solution: -0.03

Exercise: Requested read-out PBM binding z-score, target or system PXR homodimer (NR concentration 270 nM), entry `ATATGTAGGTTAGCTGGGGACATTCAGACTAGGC`
Solution: 0.356

Exercise: Requested read-out PBM binding z-score, target or system PXR homodimer (NR concentration 270 nM), entry `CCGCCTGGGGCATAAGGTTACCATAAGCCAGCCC`
Solution: -0.511

Exercise: Requested read-out PBM binding z-score, target or system PXR homodimer (NR concentration 270 nM), entry `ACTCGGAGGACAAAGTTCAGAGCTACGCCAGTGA`
Solution: 1.2

Exercise: Requested read-out PBM binding z-score, target or system PXR homodimer (NR concentration 270 nM), entry `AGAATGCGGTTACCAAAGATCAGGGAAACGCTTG`
Solution: -0.939

Exercise: Requested read-out PBM binding z-score, target or system PXR homodimer (NR concentration 270 nM), entry `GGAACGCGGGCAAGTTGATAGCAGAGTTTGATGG`
Solution: -0.209

Exercise: Requested read-out PBM binding z-score, target or system PXR homodimer (NR concentration 270 nM), entry `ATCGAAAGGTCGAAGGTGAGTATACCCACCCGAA`
Solution: -0.372

Exercise: Requested read-out PBM binding z-score, target or system PXR homodimer (NR concentration 270 nM), entry `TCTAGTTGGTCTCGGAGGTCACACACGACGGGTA`
Solution: 0.901

Exercise: Requested read-out PBM binding z-score, target or system PXR homodimer (NR concentration 270 nM), entry `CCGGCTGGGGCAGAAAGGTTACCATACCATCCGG`
Solution: -0.199

Exercise: Requested read-out PBM binding z-score, target or system PXR homodimer (NR concentration 270 nM), entry `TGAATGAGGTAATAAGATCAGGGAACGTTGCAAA`
Solution: -0.242

Exercise: Requested read-out PBM binding z-score, target or system PXR homodimer (NR concentration 270 nM), entry `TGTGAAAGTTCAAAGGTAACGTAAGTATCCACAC`
Solution: 4.19

Exercise: Requested read-out PBM binding z-score, target or system PXR homodimer (NR concentration 270 nM), entry `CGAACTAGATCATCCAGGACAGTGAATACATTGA`
Solution: 0.306

Exercise: Requested read-out PBM binding z-score, target or system PXR homodimer (NR concentration 270 nM), entry `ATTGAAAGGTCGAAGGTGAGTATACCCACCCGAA`
Solution: 0.394

###

System: VDR homodimer (NR concentration 270 nM)
Assay: PBM binding z-score (relative to random genomic background probes); higher = stronger binding; sequences stand for … in GC…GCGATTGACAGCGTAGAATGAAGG
Label Y when PBM binding z-score is at or above 1; anything below gets N.

# sequence_entry, label_value
rows = [
    ("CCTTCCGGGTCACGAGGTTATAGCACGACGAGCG", "Y"),
    ("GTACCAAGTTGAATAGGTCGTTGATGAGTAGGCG", "N"),
    ("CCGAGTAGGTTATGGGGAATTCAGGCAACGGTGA", "N"),
    ("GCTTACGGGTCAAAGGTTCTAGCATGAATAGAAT", "Y"),
    ("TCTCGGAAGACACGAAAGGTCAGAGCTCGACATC", "N"),
    ("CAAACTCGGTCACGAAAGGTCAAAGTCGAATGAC", "Y"),
    ("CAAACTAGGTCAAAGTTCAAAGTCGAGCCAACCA", "Y"),
    ("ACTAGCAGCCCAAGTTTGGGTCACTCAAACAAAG", "N"),
    ("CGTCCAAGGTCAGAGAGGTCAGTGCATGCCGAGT", "Y"),
    ("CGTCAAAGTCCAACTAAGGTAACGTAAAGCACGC", "N"),
]

Exercise: Check the entry `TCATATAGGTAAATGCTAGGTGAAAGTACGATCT` : does PBM binding z-score equal or exceed 1?
Solution: N

###

System: RARa homodimer (NR concentration 270 nM)
Test: PBM binding z-score (relative to random genomic background probes); higher = stronger binding; sequences stand for … in GC…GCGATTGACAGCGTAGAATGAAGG
Label TRUE when PBM binding z-score is at or above 0.5; anything below gets FALSE.

Reference set (3 entries):
# sequence_entry, target_or_test_system, label_value
data = [
    ("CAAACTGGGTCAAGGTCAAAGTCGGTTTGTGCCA", "RARa homodimer (NR concentration 270 nM)", "TRUE"),
    ("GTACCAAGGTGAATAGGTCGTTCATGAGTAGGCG", "RARa homodimer (NR concentration 270 nM)", "FALSE"),
    ("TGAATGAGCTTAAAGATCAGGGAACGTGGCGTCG", "RARa homodimer (NR concentration 270 nM)", "FALSE"),
]

Exercise: Check the entry `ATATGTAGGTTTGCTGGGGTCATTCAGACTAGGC` : does PBM binding z-score equal or exceed 0.5?
Solution: TRUE

Exercise: Check the entry `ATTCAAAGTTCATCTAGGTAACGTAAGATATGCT` : does PBM binding z-score equal or exceed 0.5?
Solution: TRUE

Exercise: Check the entry `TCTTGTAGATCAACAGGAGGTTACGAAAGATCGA` : does PBM binding z-score equal or exceed 0.5?
Solution: FALSE

Exercise: Check the entry `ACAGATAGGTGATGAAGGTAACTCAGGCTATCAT` : does PBM binding z-score equal or exceed 0.5?
Solution: FALSE

Exercise: Check the entry `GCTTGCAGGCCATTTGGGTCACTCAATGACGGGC` : does PBM binding z-score equal or exceed 0.5?
Solution: FALSE

Exercise: Check the entry `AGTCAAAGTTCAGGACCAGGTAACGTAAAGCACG` : does PBM binding z-score equal or exceed 0.5?
Solution: TRUE

Exercise: Check the entry `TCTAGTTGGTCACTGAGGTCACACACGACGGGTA` : does PBM binding z-score equal or exceed 0.5?
Solution: TRUE

Exercise: Check the entry `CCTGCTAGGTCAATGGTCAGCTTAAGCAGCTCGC` : does PBM binding z-score equal or exceed 0.5?
Solution: FALSE

Exercise: Check the entry `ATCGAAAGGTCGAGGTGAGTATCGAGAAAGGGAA` : does PBM binding z-score equal or exceed 0.5?
Solution: FALSE
